System: Streptococcus pyogenes SSI-9
Test: Antibacterial activity assay of bead-derived peptides (three concentrations)
Assay type: cell-based
Set-up: key: +++: inhibition by the 640-fold diluted peptide solution; ++: inhibition by the 160-fold diluted solution; +: inhibition by the 40-fold diluted solution; -: no inhibition
Settings: S. pyogenes, bead-derived peptide solution, three concentrations
Description: Each type of assay must be simplified and miniaturized to assess the activities of the library peptides in a 96-well format for the high-throughput screening. Next, the peptides in groups A and B were subjected to the antibacterial assay and structural determination. Three peptide concentrations were applied to evaluate the growth inhibition of S. pyogenes and determine the antibacterial activity. […] Finally, the structures of the peptides were determined. […]
Where a SMILES comes first, the peptide text is derived from it. [ ]: non-standard residue; d: D form. The star is where a group is joined. NHCH2CH2OH = OCCN*; For = O=C*
Result type: antibacterial activity

Compound	Result type	Observed measurement
CNC(=O)C[C@@H](NC(=O)[C@H](Cc1c[nH]c2ccccc12)NC(=O)[C@H](NC(=O)[C@H](Cc1c[nH]c2ccccc12)NC(=O)[C@@H](CC(C)C)NC(=O)[C@H](Cc1c[nH]c2ccccc12)NC(=O)[C@@H](CC(C)C)NC(=O)[C@@H](NC(=O)[C@@H](CC(C)C)NC(=O)[C@H](C)NC(=O)[C@@H](CC(C)C)NC(=O)[C@H](C)NC(=O)CNC(=O)[C@@H](NC=O)C(C)C)C(C)C)C(C)C)C(=O)N[C@@H](Cc1c[nH]c2ccccc12)C(=O)NCCO [compound 3911] (For-VGA[dL]A[dL]V[dL]W[dL]W[dV]W[dD](NHMe)W-NHCH2CH2OH)	antibacterial activity	-
